System Name: UniProt:P46953
Sequence (P46953 whole entry): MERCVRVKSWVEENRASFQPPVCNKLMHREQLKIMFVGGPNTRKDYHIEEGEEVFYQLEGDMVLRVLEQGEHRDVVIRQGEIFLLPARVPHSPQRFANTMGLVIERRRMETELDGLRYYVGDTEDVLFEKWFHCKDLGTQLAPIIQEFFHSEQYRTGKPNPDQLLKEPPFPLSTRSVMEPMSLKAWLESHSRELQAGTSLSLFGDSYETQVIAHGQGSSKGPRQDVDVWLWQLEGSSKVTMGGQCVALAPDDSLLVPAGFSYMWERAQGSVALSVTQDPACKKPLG
Run Description: Inhibition of 3-HAO in Sprague-Dawley rat brain homogenates using [1-14C]-3-HANA as substrate assessed as [14C]-QUIN production after 1 hr by liquid scintillation spectrometric analysis
Observable: IC50 (nM)
Reply numerically in nM, unit not repeated.

Q: Identify measured IC50 associated with `Cc1ccc(C(=O)O)c(N)[n+]1[O-]`
Result: 2800

###

System Name: UniProt P46952
Sequence (whole entry): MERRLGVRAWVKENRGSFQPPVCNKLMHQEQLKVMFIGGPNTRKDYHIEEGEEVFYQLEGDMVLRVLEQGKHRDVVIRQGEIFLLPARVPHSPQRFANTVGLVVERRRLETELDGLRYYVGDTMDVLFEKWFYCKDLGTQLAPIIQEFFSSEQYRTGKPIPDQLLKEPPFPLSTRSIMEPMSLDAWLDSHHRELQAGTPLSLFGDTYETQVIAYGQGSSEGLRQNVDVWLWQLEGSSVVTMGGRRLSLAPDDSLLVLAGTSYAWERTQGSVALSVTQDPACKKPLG
Run Description: Inhibition of 3-HAO in human brain homogenates using [1-14C]-3-HANA as substrate assessed as [14C]-QUIN production at 1 mM after 1 hr by liquid scintillation spectrometric analysis relative to control
Type: tissue-based
Exercise: state measured inhibition for each of the compounds provided.
Reply numerically in %, unit not repeated.

Q: Identify measured inhibition associated with `Nc1c(C(=O)O)ccc[n+]1[O-]`
Result: 94

Q: Identify measured inhibition associated with `Cc1cc(C(=O)O)c(N)[n+]([O-])c1`
Result: 80.1

Q: Identify measured inhibition associated with `Cc1cc(C(C)C)c(C(=O)O)c(N)[n+]1[O-]`
Result: 24.1

Q: Identify measured inhibition associated with `Cc1cc(C)[n+]([O-])c(N)c1C(=O)O`
Result: 69.5

Q: Identify measured inhibition associated with `Cc1cc(C(=O)O)c(N)[n+]([O-])c1C`
Result: 89.1
